recorded.metric: melting point

[
  {
    "compound": "Cc1cc2c(cc1C)-n1c(C)nnc1C=C(c1ccc(-n3c(C)nc4cnccc43)cc1)N2",
    "melting point": "294 to 296 °C"
  },
  {
    "compound": "COc1ccc(-c2cc(=O)[nH]nc2C)cc1",
    "melting point": "255 to 256 °C"
  },
  {
    "compound": "COC(=O)[C@@H]1C[C@H](N=[N+]=[N-])C(=O)[C@H]2[C@@]1(C)CC[C@H]1C(=O)O[C@H](c3ccoc3)C[C@]21C",
    "melting point": "200 to 203 °C"
  },
  {
    "compound": "N#CSCCNc1c(Cl)cccc1[N+](=O)[O-]",
    "melting point": "92 to 94 °C"
  },
  {
    "compound": "CC(=O)SCC(C(=O)O)C(C)c1ccc(O)cc1 (configuration not stated)",
    "melting point": "48 °C"
  }
]

Please report the measured melting point for O=[N+]([O-])c1ccc(OCc2ccc(F)cc2)cc1F
90 to 91 °C

Tell me its melting point given O=C(Nc1ccccc1)Nc1nc(C=C2SC(=O)NC2=O)cs1 as the entry.
> 300 °C

Provide measured melting point value, entry: CC(=O)n1nc(-c2ccncc2)nc1-c1ccncc1
156 to 158 °C

Determine its reported melting point: CCN1CNS(=O)(=O)c2cc(O)ccc21
214 to 218 °C

Could you please provide reported melting point for CCC(CNC(=O)Cc1c(Cl)cncc1Cl)c1cccc(OC)c1 (configuration not stated) ? Thanks!
104 to 105 °C

Quick one: give measured melting point for Cc1c(-c2ccc(F)cc2)oc2c(-c3ccc(S(C)(=O)=O)cc3)c(-c3ccc(F)cc3)nn12
289 to 291 °C

Using known records, supply melting point for COc1ccc(CN2CCSC2=O)cc1
84 to 86 °C

Look up and state reported melting point for COC(=O)C(CO)NS(=O)(=O)c1ccc(Oc2ccncc2)cc1 (configuration not stated)
137 to 139 °C

Please supply the value of reported melting point for the item CC(C)(C#N)c1cc(Cn2ccnc2)cc(C(N)=O)c1
149 to 150 °C

Please indicate melting point recorded for Nc1nc2cc(Cl)c(Cl)cc2[nH]1
260 to 262 °C

Give melting point for Cc1ccccc1C1=C(c2cccc(OCc3ccccc3)c2)OS(=O)(=O)CC1
257 to 259 °C

Give the measured melting point for O=C(Nc1ccc(Oc2cc(Cl)ncn2)cc1)Nc1ccc(Cl)c(C(F)(F)F)c1
180 to 181 °C
